experiment: soluble on expression in E. coli; label from the status in PepcDB or PDB records
EXPERIMENTAL_READOUT: soluble on expression in E. coli

Use the examples below as a reference point.
CHAIN_SEQUENCE	soluble on expression in E. coli
MKALLPGLYLLPVPIPYPLKTVNLYLLQGAGEVALVDTALGTRAARGALELHLAELGLCFQDVKTILLTHHHPDHYGLSGFFEGLGARVFLHEEEFARGHRFWREPEAFAEASWRLFLDHGTPEGALQGIRETVEKTRERVHPPQNPLPLRDGEALEVAGKRLRVLWTPGHADGHAAFYLEEEGVLLAGDALLEKVSPNVGLWAYTRENPLKDFLRSLDRLADLGARVAYAGHFGPIADVRQRAEELKAHHQARLEALLALLDGPKTAWELSLHLFPQELDPAGRRFAFAETLAHLEYLREEGAVGRGGPPYRYFRR	soluble
MGSDKIHHHHHHMSTFHPSHPTHNRLLAALPPIELDDLAPHLELVHLLPGDVLCKPGETLPYAYFPTSSVISIHCMLENGASSELTSVGREGMLGVSLFMGGEATQNWVSVQSAGYGYRLNAAFLLQEFNEGGMLQRLLLRYSQALITEAVQNVVCSRYHTAQQRLCRWLLSMLDRLGPQDLILTQESIASILGVRRESVTAIARKLLEAGTICYRRGHIMVIDQIGLQKETCECYKKVKKEFDQVFDEVKTCEKVRQNSINAANAL	not soluble
MQKINIDRHATAQINMLANKLMLKSSTAYTQKFGIGMTEWRIISVLSSASDCSVQKISDILGLDKAAVSRTVKKLEEKKYIEVNGHSEDKRTYAINLTEMGQELYEVASDFAIEREKQLLEEFEEAEKDQLFILLKKLRNKVDQM	soluble
MPGHTSWDATFLEPAPPLPHPSECGQPCVSGQSQMFQHRTTNAQGPPPNRPMPRPPAGMPMMTSSHEHDYTNDYEDPEEMARSRGEGFSNHLLIKTTPPPQPHPNFNSYEMSMSQQRRSQQHQQPMAPPLSDCWGSGVHDSGVLHKNADGAYYIPSGSCKF	not soluble

Now for a further sequence.
soluble on expression in E. coli for `MSLIPIRCHAVSGVALSTVQGETRLLMMKRVKGGFWCHVAGTVEAGETGWQTIVREFREETGIVVHELYNGQYLEQFYEHATNTVCLVPVFVVYCPPTQAVTLNHEHTEYRWSTLAEAKALAGFPGQQALYDHLWHYFVENSPSALMRVAMTEGHHHHHH` is not soluble

---

assay: soluble on expression in E. coli; label from the status in PepcDB or PDB records
EXPERIMENTAL_READOUT: soluble on expression in E. coli

CHAIN_SEQUENCE	EXPERIMENTAL_READOUT	RESULT
MSPEEVKARGWKELDVILVTGDAYVDHSSFGTAIIGRVLEDAGFRVGIIAQPRWENPEDFKKLGKPRLFFSVSAGNTDSMVSNLTPGLKPRNKDAYSPGGKTGLRPNRAAIIYSNRIKEAFPDMPIVLGGIEASMRRFAHYDYLSDKVRQSILADAPADLVVYGMGELQIVEIAKRLQAGEDIKGIRDISGTVWKMEVKAWKELKGKGKEKAGEQDESENATEEVAKDKSLDPAEFFKEYVEIPSFSEVSQDKAVFAKAFRTYFLEQNPVTGKGIVQPHPKTIIIQNKPMRPLTEAELDHVYELPYTGETHPSYTEPVPALEMVKFSLTTHRGCF	soluble on expression in E. coli	not soluble
MPPPNKRQKHARICGFMGTLARKKKEIEQQEALMKLHNLPLTYTEDQYKIVKEESTIYKNRFETAAAKNVELLKATDELKKELEFLKRQPGNQFKVDKKLKSEIDSAEEESKFYKNCFETTAAENVELLKVTDQLKKELEFLKAQQGNQFKVDMKIKSEMESATQSNLILLREKEMWKDRFNDVLSEKLALSARIRNVIGDRSESVEVPNDSNRDIWELREDLEMERSARRKAEEELKILKMTSSRGSMHISRDSTNQTPNEILLSMAIRLDSTSSN	soluble on expression in E. coli	not soluble
MGSDKIHHHHHHMQQEIIDFRQSQSLAGAELSRASYQRFDFGRHVHEDLHLGAVIRGAQAFNHKGTGHTLCRGDLSTLSPDECHDGIAATDTGYEVLVLSLPQWHLDRFAAELGISFGGFCQPKRKDMALYQAFVSLHRLLYQAENPLLEETALLDFFQRLLGQCSKSEKVTNTGTVKAGLSREIRLAKSLMADTPEPVTLELLGDATGLGRYRLLRHFRAQTGLSPHQWQLRLRLERAKKSLMQNDGNSLTDIAHQHGFSDLSHFTRHFRMAFLTSPSAYRRAIRN	soluble on expression in E. coli	not soluble

Source of measurements: the DeepSol protein solubility set
